pKi: −log10 of the molar value.
The following are reported pKi results, target or system Adenosine receptor A2a (Rattus norvegicus).
Outcome measure: pKi

Nc1nc(NCCN2CCN(c3c(F)cc(F)cc3F)CC2)cc2nc(-c3ccco3)nn12 7.04
CN(CCN1CCN(c2ccccc2)CC1)c1nc(N)n2nc(-c3ccco3)nc2n1 7.96
Nc1nc(NCCCN2CCN(c3ccc(F)cc3F)CC2)nc2nc(-c3ccco3)nn12 7.03
Nc1nc(NCCN2CCN(c3c(F)cc(F)cc3F)CC2)nc2nc(-c3ccco3)nn12 7.62
Nc1nc(N2CCN(c3c(F)cc(F)cc3F)CC2)nc2nc(-c3ccco3)nn12 7.54

I: Nc1nc(NCCN2CCN(c3ccccc3)CC2)nc2nc(-c3ccco3)nn12
II: Nc1nc(NCCN2CCN(c3ccc(F)cc3F)CC2)cc2nc(-c3ccco3)nn12
Challenge: Of the pair I and II , name the member with the lesser recorded pKi. Please respond with the label that marks your chosen entry.
Response given: II

###

The following are reported Ki results, target or system Adenosine receptor A1 (Rattus norvegicus).

// solved cases for Ki follow
Nc1nc(NCCN2CCN(c3c(F)cc(F)cc3F)CC2)nc2nc(-c3ccco3)nn12 > 500 nM
CN(CCN1CCN(c2ccccc2)CC1)c1nc(N)n2nc(-c3ccco3)nc2n1 1500 nM

Entry Nc1nc(NCCN2CCN(c3c(F)cc(F)cc3F)CC2)cc2nc(-c3ccco3)nn12 ; Ki = > 500 nM

Entry Nc1nc(NCCCN2CCN(c3c(F)cc(F)cc3F)CC2)nc2nc(-c3ccco3)nn12 ; Ki = > 500 nM

###

# Dose annotations
Tested on: Mus musculus
Test: Dose required for oral activity against mice catalepsy induced by 3 mg/kg haloperidol after s.c. administration
Format: functional
Number only, in mg/kg; omit the unit.

Nc1nc(NCCN2CCN(c3ccc(F)cc3F)CC2)nc2nc(-c3ccco3)nn12 10
CN(CCN1CCN(c2ccc(F)cc2F)CC1)c1cc2nc(-c3ccco3)nn2c(N)n1 3
CN(CCN1CCN(c2ccccc2)CC1)c1nc(N)n2nc(-c3ccco3)nc2n1 3

Please find the next molecule below.
Entry CN(CCN1CCN(c2ccc(F)cc2F)CC1)c1nc(N)n2nc(-c3ccco3)nc2n1 ; Dose = 3
